pKi: −log10 of the molar value.
Compiled pKi measurements on Mu-type opioid receptor (Homo sapiens) taken from the literature.
Sequence (P35372 whole entry): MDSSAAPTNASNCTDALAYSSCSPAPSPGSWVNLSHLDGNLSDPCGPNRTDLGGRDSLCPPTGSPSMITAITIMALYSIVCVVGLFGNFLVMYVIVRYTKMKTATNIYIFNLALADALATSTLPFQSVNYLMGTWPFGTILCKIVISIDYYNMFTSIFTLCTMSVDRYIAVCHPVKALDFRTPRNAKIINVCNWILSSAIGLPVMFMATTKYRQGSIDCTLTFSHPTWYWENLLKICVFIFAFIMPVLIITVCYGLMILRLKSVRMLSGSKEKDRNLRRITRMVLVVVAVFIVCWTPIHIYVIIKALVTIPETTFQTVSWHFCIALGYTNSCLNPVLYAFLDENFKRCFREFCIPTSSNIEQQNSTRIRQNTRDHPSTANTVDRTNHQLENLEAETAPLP
Experimental endpoint: pKi

Molecule	Measured on	Test value
COC(=O)C(Cc1cccc(OC)c1I)NC(=O)[C@@H](N)Cc1ccccc1 (mixture of isomers)	Mu-type opioid receptor (Homo sapiens)	< 5.00
COc1ccc(C[C@H]2C(=O)C[C@@H]3CCN(C)[C@@H]4CCC[C@H]2[C@@H]34)cc1	Mu-type opioid receptor (Homo sapiens)	< 5.00
CNCC(=O)NC(Cc1cccc(OC)c1I)C(=O)OC (stereo not drawn)	Mu-type opioid receptor (Homo sapiens)	< 5.00
O=S(=O)(Nc1ccccc1)N1CCC(c2ccccc2)(c2nccn2Cc2ccccc2)CC1	Mu-type opioid receptor (Homo sapiens)	6.01
CC(=O)N[C@H](Cc1c(C)[nH]c2ccc(Cl)cc12)C(=O)N[C@@H](Cc1ccccc1)C(=O)NCC(N)=O	Mu-type opioid receptor (Homo sapiens)	< 4.00
O=C1C[C@@H]2CCN(Cc3cccs3)[C@@H]3CCC[C@@H]([C@@H]23)[C@H]1Cc1ccccc1	Mu-type opioid receptor (Homo sapiens)	< 5.00
COc1cccc(Cn2ccnc2C2(c3ccccc3)CCN(C(=O)Nc3ccccc3)CC2)c1	Mu-type opioid receptor (Homo sapiens)	5.49
N[C@H](c1cccc(C(F)(F)F)c1)[C@H]1CCN1C(c1ccccc1)c1ccccc1	Mu-type opioid receptor (Homo sapiens)	6.29
CCCN1CC[C@H]2c3cc4cccc(OC)c4nc3[C@H](CC)[C@H]3CCC[C@@H]1[C@@H]32	Mu-type opioid receptor (Homo sapiens)	< 5.00
NS(=O)(=O)N1CCC(c2ccccc2)(c2nccn2Cc2ccccc2)CC1	Mu-type opioid receptor (Homo sapiens)	< 5.33
COC(=O)C(Cc1cccc(OC)c1I)NC(=O)CCCc1ccccc1 (stereo not drawn)	Mu-type opioid receptor (Homo sapiens)	< 5.00
COc1ccc(NC(=O)N2CCN(c3ccc(F)cc3)CC2)cc1N1CCN(C)CC1	Mu-type opioid receptor (Homo sapiens)	< 5.00
CCNC(=O)c1ccc(C(=C2CC3CCC(C2)N3Cc2ccccc2Cl)c2cccc(OC)c2)cc1	Mu-type opioid receptor (Homo sapiens)	7.24
CCCCC(c1cc(F)cc(F)c1)N1CC[C@H]1[C@@H](N)c1cccc(Cl)c1 (stereo partly drawn)	Mu-type opioid receptor (Homo sapiens)	5.26
CCC[C@H](c1nc2ccc(Br)cc2c(=O)n1CC)N1CCN[C@@H](C)C1	Mu-type opioid receptor (Homo sapiens)	6.80
COc1cccc(CC2NC(=O)CN(Cc3ccccc3)C2=O)c1 (stereo not drawn)	Mu-type opioid receptor (Homo sapiens)	< 5.00
CNc1cc(-c2csc(N(C)C(=O)c3ccc(F)cc3)n2)ncn1	Mu-type opioid receptor (Homo sapiens)	< 5.00
COC(=O)C(Cc1cccc(OC)c1I)NC(=O)CN(C)Cc1ccccc1 (stereo not drawn)	Mu-type opioid receptor (Homo sapiens)	< 5.00
COC(=O)C(Cc1cccc(OC)c1I)NC(=O)CCNCc1ccccc1 (stereo not drawn)	Mu-type opioid receptor (Homo sapiens)	< 5.00
CC(=O)N[C@H](Cc1cnc[nH]1)C(=O)N[C@@H](Cc1ccccc1)C(=O)NCC(N)=O	Mu-type opioid receptor (Homo sapiens)	< 4.00
CC(=O)N[C@H](Cc1c[nH]c2ccc(F)cc12)C(=O)N[C@@H](Cc1ccccc1)C(=O)NCC(N)=O	Mu-type opioid receptor (Homo sapiens)	< 4.00
CCOC(=O)N1CCC(c2ccccc2)(c2nccn2Cc2ccc3ccccc3c2)CC1	Mu-type opioid receptor (Homo sapiens)	< 6.33
CCNC(=O)c1ccc(C(=C2CC3CCC(C2)N3c2cccn2C)c2ccccc2)cc1	Mu-type opioid receptor (Homo sapiens)	7.23
COc1c(OCCF)cccc1C(O)C1CCN(CCc2ccc(F)cc2)CC1 (stereo not drawn)	Mu-type opioid receptor (Homo sapiens)	< 5.00
COc1ccc(NC(=O)N2CCN(c3ccc(SC)cc3)CC2)cc1N1CCN(C)CC1	Mu-type opioid receptor (Homo sapiens)	< 5.00
CCC1(CC)CC(OCCCN2CCN(c3cccc(Cl)c3Cl)CC2)(c2ccccn2)CCO1 (stereo not drawn)	Mu-type opioid receptor (Homo sapiens)	5.64
CCCN1CC[C@H]2CC(=O)C[C@H]3CCC[C@@H]1[C@@H]32	Mu-type opioid receptor (Homo sapiens)	< 5.00
COC(=O)C(Cc1cccc(OC)c1C)NC(=O)CNCc1ccccc1 (stereo not drawn)	Mu-type opioid receptor (Homo sapiens)	< 5.00
COc1ccc(C[C@H]2C(=O)C[C@@H]3CCN(CCC(C)C)[C@@H]4CCC[C@H]2[C@@H]34)cc1	Mu-type opioid receptor (Homo sapiens)	< 5.00
COc1ccc(NC(=O)N2CCN(c3ccccc3F)CC2)cc1N1CCN(C)CC1	Mu-type opioid receptor (Homo sapiens)	< 5.00
CN(CCCNC(=O)c1ccc2ccccc2c1)Cc1ccccc1	Mu-type opioid receptor (Homo sapiens)	5.46
O=C(Nc1ccccc1)N1CCC(c2ccccc2)(c2nccn2Cc2ccccc2F)CC1	Mu-type opioid receptor (Homo sapiens)	6.37
CN(C)C(=O)C(CCN(CCO)[C@@H]1C[C@H]1c1ccc(Cl)cc1)(c1ccccc1)c1ccccc1 (relative stereo)	Mu-type opioid receptor (Homo sapiens)	7.57
CCCCCCC(c1ccccc1)N1CC[C@H]1[C@@H](N)c1cccc(Cl)c1 (stereo partly drawn)	Mu-type opioid receptor (Homo sapiens)	5.80
CC(=O)N[C@H](Cc1c[nH]c2ccc(C)cc12)C(=O)N[C@@H](Cc1ccccc1)C(=O)NCC(N)=O	Mu-type opioid receptor (Homo sapiens)	6.37
CCNC(=O)c1ccc(C(=C2CC3CCC(C2)N3Cc2cccs2)c2ccc(O)cc2)cc1	Mu-type opioid receptor (Homo sapiens)	8.17
CCc1ccc(OCc2ccccc2C(=O)Nc2ccc3nc(C)cc(N)c3c2)cc1	Mu-type opioid receptor (Homo sapiens)	6.99
COC(=O)C(Cc1cc(OC)cc(OC)c1I)NC(=O)CNCc1ccccc1 (stereo not drawn)	Mu-type opioid receptor (Homo sapiens)	< 5.00

* * *

Multi-source literature compilation: pKi on UniProt:P35372.
pKi: −log10 of the molar value.
Outcome label depends on pKi relative to 6: at/above gives 1, below gives 0.

Compound	Discrete label
N[C@H](c1cccc(Cl)c1)[C@@H]1CCN1C(c1ccc(F)cc1)c1ccc(F)cc1	0
CC(=O)N[C@H](CCCCN)C(=O)N[C@@H](Cc1ccccc1)C(N)=O	0
FC(CCN1CCc2ccccc2CC1)Cc1ccccc1 (stereo not given)	1
CC(=O)Nc1ccc(CCN2CCC3(CC2)CN(c2ccccc2)C(=O)C(C)O3)cc1 (stereo not given)	0
NC(=O)c1ccc(Oc2ccc(CN3CCCC3c3cccc(F)c3)cc2)c(F)c1 (racemic)	1
Cc1ccc(S(=O)(=O)N2CCc3cc(C(=O)NCCN(Cc4ccccc4)C(C)(C)C)ccc3C2)cc1	0
C[C@H]1CN(C(=O)c2ccc(-c3ccccc3C(F)(F)F)cc2)CCN1C(=O)c1ccc2cc[nH]c2c1	0
C[C@H]1CN(C(=O)c2ccc(-c3ccccc3)cc2)CCN1C(=O)c1ccc2cc[nH]c2c1	0
CCNC(=O)N1CCC(c2ccccc2)(c2nccn2Cc2ccccc2)CC1	0

* * *

Hi, quick share: literature pKi data for Mu-type opioid receptor (Homo sapiens), several sources combined.
pKi: −log10 of the molar value.
Experimental endpoint: pKi

Molecule	Rel	Test value
O=C(Cc1ccccc1)N1CCC(c2ccccc2)(c2nccn2Cc2ccccc2)CC1	<	6.33
C[C@H]1CN(C(=O)c2ccc(-c3ccc(OC(F)(F)F)cc3)cc2)CCN1C(=O)c1ccc2cc[nH]c2c1	<	5.00
C[C@H]1CO[C@@H](c2ccc(N)nc2)CN1CC[C@H]1CC[C@H](NC(=O)c2cc3ccccc3[nH]2)CC1 (relative stereo)	=	4.66
COc1ccccc1N1CCC(C(=O)Nc2ccc(OC)c(N3CCN(C)CC3)c2)CC1	<	5.00
O=C1C[C@@H]2CCN(Cc3nccs3)[C@@H]3CCC[C@@H]([C@@H]23)[C@H]1Cc1ccccc1	<	5.00
CCCCCCN1CCCc2cc(Oc3ccc(C(N)=O)cn3)ccc2C1	=	7.92
Clc1cccc(N2CCN(CCCCNCCC3(c4ccccn4)CCOCC3)CC2)c1Cl	=	5.84
O=C(Nc1ccccc1)N1CCC(c2ccccc2)(c2ncc[nH]2)CC1	<	6.33
NC(=O)c1ccc(Oc2ccc(CN3CCCC3c3ccccc3)cc2)nc1 (racemic)	=	6.63

* * *

Compiled from multiple publications: Ki readings for Mu-type opioid receptor (Homo sapiens, UniProt P35372).

Compound	Ki
CC(C)CCN1CCCc2cc(Oc3ccc(C(N)=O)cn3)ccc2C1	11.1 nM
NC(=O)c1ccc(Oc2ccc3c(c2)CN(CCc2ccccc2)C3)nc1	659 nM
Fc1ccc(N2CCN(Cc3c[nH]c4ncccc34)CC2)cc1	> 10000 nM
CCCN(CCC(C(=O)N(C)C)(c1ccccc1)c1ccccc1)[C@@H]1C[C@H]1c1ccc(Cl)cc1 (relative stereo)	31.2 nM

* * *

pKi: −log10 of the molar value.
Multiple publications report pKi for Mu-type opioid receptor (Homo sapiens); what follows is a combined list.
Experimental endpoint: pKi

Compound	Measured on	Rel	Test value
CC[C@H]1C(=O)C[C@@H]2CCN(CC3CCCCC3)[C@@H]3CCC[C@H]1[C@@H]23	Mu-type opioid receptor (Homo sapiens)	=	5.72
O=C(O)c1ccc(C#Cc2ccc3c(c2)C=C([N+](=O)[O-])C(C(F)(F)F)O3)cc1 (stereo not drawn)	Mu-type opioid receptor (Homo sapiens)	=	5.38
CCNC(=O)c1ccc(C(=C2CC3CCC(C2)N3Cc2ccccc2Cl)c2ccc(O)cc2)cc1	Mu-type opioid receptor (Homo sapiens)	=	8.06
C[C@@H]1CN(C(c2ccccc2)c2ccccc2)CC[C@@]1(O)c1ccccc1	Mu-type opioid receptor (Homo sapiens)	=	6.13
CCNC(=O)c1ccc(C(=C2CC3CCC(C2)N3Cc2cccs2)c2cccc(O)c2)cc1	Mu-type opioid receptor (Homo sapiens)	=	9.18
CCCCC(c1ccccc1)N1CC[C@H]1[C@H](N)c1cccc(Cl)c1 (stereo partly drawn)	Mu-type opioid receptor (Homo sapiens)	=	5.74
COc1cccc(CC2NC(=O)CCN(Cc3ccccc3)C2=O)c1I (stereo not drawn)	Mu-type opioid receptor (Homo sapiens)	<	5.00
COC(=O)c1ccc(Cn2ccnc2C2(c3ccccc3)CCN(C(=O)c3ccccc3)CC2)cc1	Mu-type opioid receptor (Homo sapiens)	<	5.33
N[C@@H](c1cccc(C(F)(F)F)c1)[C@@H]1CCN1C(c1ccccc1)c1ccccc1 (stereo in doubt; (+)-1a)	Mu-type opioid receptor (Homo sapiens)	=	5.22
CCNC(=O)c1ccc(C(=C2CC3CCC(C2)N3Cc2cccs2)c2cccc(OC)c2)cc1	Mu-type opioid receptor (Homo sapiens)	=	8.42
O=C(c1cc(C(F)(F)F)cc(C(F)(F)F)c1)N1CCC(c2ccccc2)(c2nccn2Cc2ccccc2)CC1	Mu-type opioid receptor (Homo sapiens)	<	6.33
CC(=O)N[C@H](Cc1c[nH]c2cc(Cl)ccc12)C(=O)N[C@@H](Cc1ccccc1)C(=O)NCC(N)=O	Mu-type opioid receptor (Homo sapiens)	<	4.00
N[C@@H](c1ccc(Oc2ccccc2)cc1)[C@@H]1CCN1C(c1ccccc1)c1ccccc1	Mu-type opioid receptor (Homo sapiens)	=	5.27
N#Cc1cc(F)cc(C#Cc2csc(F)n2)c1	Mu-type opioid receptor (Homo sapiens)	<	5.00
Cn1c(N2CCC(c3ccccc3)(c3nccn3Cc3ccccc3)CC2)nc2ccccc21	Mu-type opioid receptor (Homo sapiens)	=	6.63
CC[C@H]1C(=O)C[C@@H]2CCN(CCOC)[C@@H]3CCC[C@H]1[C@@H]23	Mu-type opioid receptor (Homo sapiens)	<	5.00
COc1ccc([C@@H]2C[C@H]2NCCC(C(=O)N(C)C)(c2ccccc2)c2ccccc2)cc1 (relative stereo)	Mu-type opioid receptor (Homo sapiens)	=	7.09
COc1ccc(CCN(CCCc2ccccc2)CCc2ccc3c(c2)OCO3)cc1OC	Mu-type opioid receptor (Homo sapiens)	=	6.47
